# targetEntity: IDO1 (Homo sapiens)
# Construct: HeLa cells were treated with a test compound in the presence of IFNγ, which induces IDO1 expression; host or cells: H1-HeLa cells, IDO1 induced with IFNγ
# Sequence (P14902 whole entry): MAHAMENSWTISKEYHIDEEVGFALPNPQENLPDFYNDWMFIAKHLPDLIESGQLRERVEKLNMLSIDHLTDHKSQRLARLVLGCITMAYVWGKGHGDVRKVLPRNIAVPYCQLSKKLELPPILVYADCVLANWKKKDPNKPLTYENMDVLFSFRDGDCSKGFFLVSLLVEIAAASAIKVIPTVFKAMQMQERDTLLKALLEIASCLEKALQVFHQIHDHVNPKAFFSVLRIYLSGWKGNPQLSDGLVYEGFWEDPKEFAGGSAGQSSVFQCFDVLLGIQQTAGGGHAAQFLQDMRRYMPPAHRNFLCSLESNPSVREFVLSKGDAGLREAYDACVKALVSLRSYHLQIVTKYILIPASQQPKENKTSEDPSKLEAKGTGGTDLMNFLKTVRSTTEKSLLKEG
# measurementDescription: Cell-based (HeLa) assay for measurement of IDO1 inhibition (kynurenine levels in supernatant after IFNγ induction)
# conditionLabel: HeLa cells, IFNγ-induced IDO1, kynurenine in supernatant after 48 hour incubation; geometric mean of a minimum of four determinations
# Description: Example 509. Cell-Based (HeLa) Assay for Measurement of IDOL Inhibition To measure IDO1 inhibition in tissue culture, HeLa cells were treated with a test compound in the presence of IFNγ, which induces IDO1 expression. […] Data in Table 1 were normalized based on positive (−IFNγ) and negative (+IFNγ) controls and EC50 values were calculated from the fit of the dose response curves to a four-parameter equation. […]
Heads up, the class ranges for EC50 are low group: < 700 nM; middle group: ≥ 700 nM and < 4000 nM; high group: ≥ 4000 nM

Before answering, review these 2 worked examples.
In [3]: df
Out[3]:
                                   molecule  classification
0  CC(C)(C)OC(=O)NCCc1nc2c(F)c(F)cc(/C(=N/O)Nc3ccc(F)c(Cl)c3)c2[nH]1    middle group
1  O/N=C(\Nc1ccc(F)c(Cl)c1)c1c(F)ccc2nc[nH]c12      high group

# input Each molecule maps to one class by EC50. Which class for O=S1(=O)CCN(CCNc2nc3nccc(/C(=N/O)Nc4ccc(F)c(Cl)c4)c3[nH]2)CC1 ?
# output high group

# input Each molecule maps to one class by EC50. Which class for NCc1nc2nccc(/C(=N/O)Nc3ccc(F)c(Cl)c3)c2[nH]1 ?
# output high group

# input Each molecule maps to one class by EC50. Which class for O/N=C(\Nc1ccc(F)c(Cl)c1)c1ccnc2nc(CNCc3ccncc3)[nH]c12 ?
# output middle group

# input Each molecule maps to one class by EC50. Which class for O/N=C(\Nc1ccccc1)c1ccnc2nc[nH]c12 ?
# output middle group

# input Each molecule maps to one class by EC50. Which class for O/N=C(\Nc1ccc(F)c(Cl)c1)c1ccnc2nc(CNCC3CCOC3)[nH]c12 (stereo not shown) ?
# output high group

# input Each molecule maps to one class by EC50. Which class for CN(CCNc1nc2nccc(/C(=N/O)Nc3ccc(F)c(Cl)c3)c2[nH]1)C1CC1 ?
# output low group

# input Each molecule maps to one class by EC50. Which class for COCCNCc1nc2nccc(/C(=N/O)Nc3ccc(F)c(Cl)c3)c2[nH]1 ?
# output middle group
